- Protocol Description: Solubility in PBS
- Assay type: physicochemical
- Conditions: Solubility (uM)
Property Measured: Solubility (µM)
Write the value in µM as a bare number.

Known Solubility results, listed for orientation:
Compound	Solubility, µM
COc1cccc(C[C@@H]2NC(=O)[C@H](C)NC(=O)[C@H](C)NC(=O)[C@H](CC(=O)O)NC(=O)[C@H](CC(=O)O)NC(=O)C3(CCCC=CCCCOC(=O)N4CC[C@@](C(=O)N[C@@H](Cc5ccccc5Cl)C(=O)N[C@@H](Cc5csc6ccccc56)C(=O)N[C@@H](CCC(N)=O)C(N)=O)(C4)NC(=O)[C@H](CO)NC2=O)CCCC=CC[C@]2(CCCN2C(C)=O)C(=O)N[C@@H](CC(=O)O)C(=O)N[C@@H](CC2CCCCC2)C(=O)N3)c1 (stereo partly drawn) [I-1118]	37
CC(=O)N1CCC[C@]12CC=CCCCC1(CCCC=CCCCCCC[C@@](C)(C(=O)N[C@@H](Cc3ccccc3)C(=O)N[C@@H](Cc3csc4ccccc34)C(=O)N[C@@H](CCC(N)=O)C(N)=O)NC(=O)[C@H](CCC(N)=O)NC(=O)[C@H](Cc3ccccc3)NC(=O)[C@H](C)NC(=O)[C@H](C)NC(=O)[C@H](CCC(=O)O)NC(=O)[C@H](CC(=O)O)NC1=O)NC(=O)[C@H](CC(F)F)NC(=O)[C@H](CC(=O)O)NC2=O (stereo partly drawn) [I-503]	33

Continue with the compound presented below.
Give the measured Solubility of CC(=O)N1CCC[C@]12CC=CCCCC1(CCCC=CCCCCOC(=O)N3CC[C@@](C(=O)N[C@@H](Cc4ccsc4)C(=O)N[C@@H](Cc4csc5ccccc45)C(=O)N[C@@H](CC(N)=O)C(=O)N[C@@H](C)C(N)=O)(C3)NC(=O)[C@H](CC(N)=O)NC(=O)[C@H](Cc3ccccc3)NC(=O)[C@H](C)NC(=O)[C@H](C)NC(=O)[C@H](CC(=O)O)NC(=O)[C@H](CC(=O)O)NC1=O)NC(=O)[C@H](CC(C)(C)C)NC(=O)[C@H](CC(=O)O)NC2=O (stereo partly drawn) [I-829] .
34
